Provenance of the data: PubChem BioAssay AID1195

Test system: human maximum recommended daily dose, FDA database
Test: DSSTox (FDAMDD) FDA Maximum (Recommended) Daily Dose Database
Settings: TherapeuticCategory: thyroid hormone; hits give low values
Description: The Food and Drug Administration (FDA) Center for Drug Evaluation and Research, Office of Pharmaceutical Science, Informatics and Computational Safety Analysis Staff's Maximum Recommended Daily Dose (FDAMDD) database contains values for over 1200 pharmaceuticals listed in Martindale: The Extra Pharmacopoeia (1973, 1983, and 1993) and The Physicians' Desk Reference (1995 and 1999). […]
experimental_endpoint: maximum recommended daily dose (mmol/kg-bw/day)

>  <smiles_string>
N[C@@H](Cc1cc(I)c(Oc2ccc(O)c(I)c2)c(I)c1)C(=O)O

>  <recorded_number>
2.57e-06

$$$$
